The reader will find reported inhibition at 0.01 µM values listed item by item below.
- system name: Androgen Receptor (AR) protein (Homo sapiens, UniProt P10275, T878A)
- Construct: endogenous in cells; host or cells: LNCaP
- Sequence (P10275 whole entry T878A): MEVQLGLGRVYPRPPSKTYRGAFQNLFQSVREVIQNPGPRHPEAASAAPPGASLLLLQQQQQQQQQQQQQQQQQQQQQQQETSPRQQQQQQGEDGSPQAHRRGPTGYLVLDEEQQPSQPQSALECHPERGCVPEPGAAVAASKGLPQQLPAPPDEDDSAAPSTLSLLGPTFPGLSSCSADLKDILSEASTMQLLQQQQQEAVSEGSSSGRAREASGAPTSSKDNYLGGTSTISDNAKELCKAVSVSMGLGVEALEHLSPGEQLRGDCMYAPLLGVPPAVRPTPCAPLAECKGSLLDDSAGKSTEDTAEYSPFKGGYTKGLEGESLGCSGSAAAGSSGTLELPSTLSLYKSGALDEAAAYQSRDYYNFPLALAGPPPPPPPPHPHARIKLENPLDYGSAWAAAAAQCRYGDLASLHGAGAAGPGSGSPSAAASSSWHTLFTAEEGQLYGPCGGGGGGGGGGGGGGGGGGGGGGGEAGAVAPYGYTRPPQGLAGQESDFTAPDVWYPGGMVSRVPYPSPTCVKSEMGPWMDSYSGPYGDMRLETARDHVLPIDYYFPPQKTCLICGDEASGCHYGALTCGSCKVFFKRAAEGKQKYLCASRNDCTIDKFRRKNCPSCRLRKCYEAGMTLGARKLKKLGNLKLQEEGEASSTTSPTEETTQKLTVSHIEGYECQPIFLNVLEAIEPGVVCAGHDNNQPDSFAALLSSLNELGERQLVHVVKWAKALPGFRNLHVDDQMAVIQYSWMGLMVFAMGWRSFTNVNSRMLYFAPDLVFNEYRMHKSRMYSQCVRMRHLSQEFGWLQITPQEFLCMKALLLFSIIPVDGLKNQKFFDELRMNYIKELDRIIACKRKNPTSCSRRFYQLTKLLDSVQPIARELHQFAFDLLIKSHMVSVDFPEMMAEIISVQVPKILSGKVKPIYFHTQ
- Sequence (Q96SW2 whole entry partner): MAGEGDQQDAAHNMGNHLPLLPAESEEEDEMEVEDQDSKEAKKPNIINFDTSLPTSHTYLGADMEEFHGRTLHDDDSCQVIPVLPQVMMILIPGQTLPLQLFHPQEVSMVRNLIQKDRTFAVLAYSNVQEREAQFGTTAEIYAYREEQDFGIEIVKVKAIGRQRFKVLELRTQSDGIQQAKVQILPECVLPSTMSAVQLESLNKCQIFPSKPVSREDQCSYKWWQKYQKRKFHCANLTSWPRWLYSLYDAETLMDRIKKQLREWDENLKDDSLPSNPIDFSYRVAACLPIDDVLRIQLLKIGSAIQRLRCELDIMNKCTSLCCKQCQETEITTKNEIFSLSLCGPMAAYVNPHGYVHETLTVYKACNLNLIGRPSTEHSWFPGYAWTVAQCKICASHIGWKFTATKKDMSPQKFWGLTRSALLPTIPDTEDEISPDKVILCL
- experiment: Androgen Receptor (AR) protein degradation assay in LNCaP cells, western blotting
- Type: cell-based
- conditions used: 20 h, 0.01 μM compound
State just the number; it will be interpreted in %.

Please review the following examples before continuing.
N#Cc1ccc(N2CCC(C(=O)Nc3ccc(N4CCC(CN5CCC(Oc6ccc7c(c6)C(=O)N(C6CCC(=O)NC6=O)C7=O)CC5)CC4)cn3)CC2)cc1C(F)(F)F (stereo not drawn) = 67
C[C@H]1CN(C2CCN(c3ccc4c(n3)CN(C3CCC(=O)NC3=O)C4=O)CC2)CCN1CC1CCN(c2ccc(NC(=O)C3CCN(c4ccc(C#N)c(C(F)(F)F)c4)CC3)nc2)CC1 (stereo partly drawn) = 66

Input line: Using the record for N#Cc1ccc(N2CCC(F)(C(=O)Nc3ccc(N4CCC(CN5CCN(CC6CCN(c7ccc8c(c7)C(=O)N(C7CCC(=O)NC7=O)C8=O)CC6)CC5)CC4)cn3)CC2)cc1C(F)(F)F (stereo not drawn) , report its inhibition at 0.01 µM.
Output line: 37

###

The reader will find reported inhibition at 0.1 µM values listed item by item below.
- system name: Androgen Receptor (AR) protein (Homo sapiens, UniProt P10275, T878A)
- Construct: endogenous in cells; host or cells: LNCaP
- experiment: Androgen Receptor (AR) protein degradation assay in LNCaP cells, western blotting
- Format: cell-based
- conditions used: 20 h, 0.1 μM compound
State just the number; it will be interpreted in %.

Please review the following examples before continuing.
N#Cc1ccc(N2CCC(C(=O)Nc3ccc(N4CCC(CN5CC[C@@H](CN6CCN(c7ccc8c(c7)C(=O)N(C7CCC(=O)NC7=O)C8=O)CC6)C5)CC4)cn3)CC2)cc1C(F)(F)F (stereo partly drawn) = 87
N#Cc1ccc(N2CCC(C(=O)Nc3ccc(N4CCC(CCN5CCN(c6ccc7c(c6)CN(C6CCC(=O)NC6=O)C7=O)CC5)CC4)cn3)CC2)cc1C(F)(F)F (stereo not drawn) = 92

Input line: Using the record for N#Cc1ccc(N2CCC(F)(C(=O)Nc3ccc(N4CCC(CN5CC6(CCN(c7ccc8c(c7)C(=O)N(C7CCC(=O)NC7=O)C8=O)CC6)C5)CC4)cn3)CC2)cc1C(F)(F)F (stereo not drawn) , report its inhibition at 0.1 µM.
Output line: 95

###

- system name: Androgen Receptor (AR) protein (Homo sapiens, UniProt P10275, T878A)
- Construct: endogenous in cells; host or cells: LNCaP
- experiment: Androgen Receptor (AR) protein degradation assay in LNCaP cells, western blotting
- Format: cell-based
- conditions used: 20 h, 1 μM compound
endpoint label: inhibition at 1 µM
Hey, just the number and the unit after it is fine.

N#Cc1ccc(N2CCC(C(=O)Nc3ccc(N4CC(CN5CCN(CC6CCN(c7ccc8c(c7)C(=O)N(C7CCC(=O)NC7=O)C8=O)CC6)CC5)C4)cn3)CC2)cc1C(F)(F)F (centres unmarked) [Example 27] = 97%
N#Cc1ccc(N2CCC(C(=O)Nc3ccc(N4CCC(CN5CCN(CC6CCN(c7ccc8c(c7)C(=O)N(C7CCC(=O)NC7=O)C8=O)CC6)CC5)CC4)cc3)CC2)cc1C(F)(F)F (centres unmarked) [Example 21] = 63%
N#Cc1ccc(N2CCC(C(=O)Nc3ccc(CC4CCN(CC5CCN(c6cc7c(cc6F)C(=O)N(C6CCC(=O)NC6=O)C7=O)CC5)CC4)cn3)CC2)cc1C(F)(F)F (centres unmarked) [Example 182] = 98%
N#Cc1ncc(N2CCC(F)(C(=O)Nc3ccc(N4CCC(CCN5CCN(c6ccc7c(c6)C(=O)N(C6CCC(=O)NC6=O)C7=O)CC5)CC4)cn3)CC2)cc1C(F)(F)F (centres unmarked) [Example 90] = 82%
COc1ccc(C(=O)N2CC3(CCN(CC4CCN(c5ccc(NC(=O)C6CCN(c7ccc(C#N)c(C(F)(F)F)c7)CC6)nc5)CC4)CC3)C2)cc1N1CCC(=O)NC1=O [Example 65] = 82%
N#Cc1ccc(N2CCC(C(=O)Nc3ccc(N4CCC(CN5CCN(CC6CN(c7ccc8c(c7)C(=O)N(C7CCC(=O)NC7=O)C8=O)C6)CC5)CC4)cn3)CC2)cc1Cl (centres unmarked) [Example 12] = 97%
N#Cc1ccc(N2CCC(C(=O)Nc3ccc(N4CCC(CN5CC(N6CCN(c7ccc8c(c7)C(=O)N(C7CCC(=O)NC7=O)C8=O)CC6)C5)CC4)cn3)CC2)cc1C(F)(F)F (centres unmarked) [Example 77] = 97%
C[C@H]1CN(C2CCN(c3ccc4c(n3)CN(C3CCC(=O)NC3=O)C4=O)CC2)CCN1CC1CCN(c2ccc(NC(=O)C3CCN(c4ccc(C#N)c(C(F)(F)F)c4)CC3)nc2)CC1 (some centres unmarked) [Example 45] = 87%

Input line: Using the record for C[C@@H]1CN(C2CN(c3ccc4c(c3)C(=O)N(C3CCC(=O)NC3=O)C4=O)C2)CCN1CC1CCN(c2ccc(NC(=O)C3CCN(c4ccc(C#N)c(C(F)(F)F)c4)CC3)nc2)CC1 (some centres unmarked) [Example 41] , report its inhibition at 1 µM.
Output line: 86%

Input line: Subsequent entry: N#Cc1ccc(N2CCC(C(=O)Nc3ccc(N4CCN(CCC5CCN(c6ccc7c(c6)C(=O)N(C6CCC(=O)NC6=O)C7=O)CC5)CC4)cn3)CC2)cc1Cl (centres unmarked) [Example 120]
Output line: 96%

Input line: Subsequent entry: N#Cc1ccc(N2CCC(C(=O)Nc3ccc(N4CCC(CCN5CCN(c6ccc(C(=O)NC7CCC(=O)NC7=O)nc6)CC5)CC4)cn3)CC2)cc1C(F)(F)F (centres unmarked) [Example 107]
Output line: 93%

###

- system name: Androgen Receptor (AR) protein (Homo sapiens, UniProt P10275, T878A)
- Construct: endogenous in cells; host or cells: LNCaP
- experiment: Androgen Receptor (AR) protein degradation assay in LNCaP cells, western blotting
- Assay type: cell-based
- conditions used: 20 h, 0.1 μM compound
endpoint label: inhibition at 0.1 µM (%)
State just the number; it will be interpreted in %.

N#Cc1ccc(N2CCC(C(=O)Nc3ccc(N4CCC(CCN5CCN(c6cc7c(cc6F)C(=O)N(C6CCC(=O)NC6=O)C7=O)CC5)CC4)cn3)CC2)cc1C(F)(F)F (stereo not drawn) = 15
N#Cc1ccc(N2CCC(C(=O)Nc3ccc(N4CCC(CN5CCC6(CC5)CCN(c5ccc7c(c5)C(=O)N(C5CCC(=O)NC5=O)C7=O)CC6)CC4)cn3)CC2)cc1Cl (stereo not drawn) = 83

Input line: Using the record for C[C@@H]1CN(C2CCN(c3ccc4c(n3)CN(C3CCC(=O)NC3=O)C4=O)CC2)CCN1CC1CCN(c2ccc(NC(=O)C3CCN(c4ccc(C#N)c(C(F)(F)F)c4)CC3)nc2)CC1 (stereo partly drawn) , report its inhibition at 0.1 µM.
Output line: 94

###

- system name: Androgen Receptor (AR) protein (Homo sapiens, UniProt P10275, T878A)
- Construct: endogenous in cells; host or cells: LNCaP
- experiment: Androgen Receptor (AR) protein degradation assay in LNCaP cells, western blotting
- Type: cell-based
- conditions used: 20 h, 1 μM compound
The reader will find reported inhibition at 1 µM values listed item by item below.
State just the number; it will be interpreted in %.

Please review the following examples before continuing.
N#Cc1ccc(N2CCC(C(=O)Nc3ccc(N4CCC(CN5CCN(C[C@@H]6CCCN(c7ccc8c(c7)C(=O)N(C7CCC(=O)NC7=O)C8=O)C6)CC5)CC4)cn3)CC2)cc1C(F)(F)F (some centres unmarked) = 90
N#Cc1ccc(N2CCC(C(=O)Nc3ccc(N4CCC(OCCN5CCN(c6cccc7c6C(=O)N(C6CCC(=O)NC6=O)C7=O)CC5)CC4)cn3)CC2)cc1C(F)(F)F (centres unmarked) = 29
N#Cc1ccc(N2CCC(C(=O)Nc3ccc(N4CCC(CCN5CCC6(CC5)CN(c5ccc7c(c5)C(=O)N(C5CCC(=O)NC5=O)C7=O)C6)CC4)cn3)CC2)cc1C(F)(F)F (centres unmarked) = 97
CC1(CN2CCC(Oc3ccc(NC(=O)C4CCN(c5ccc(C#N)c(C(F)(F)F)c5)CC4)nc3)CC2)CN(c2ccc3c(c2)C(=O)N(C2CCC(=O)NC2=O)C3=O)C1 (centres unmarked) = 91
N#Cc1ccc(N2CCC(C(=O)Nc3ccc(N4CCC(CN5CCN(C6CCN(c7ccc8c(c7)C(=O)N(C7CCC(=O)NC7=O)C8=O)CC6)CC5)CC4)cn3)CC2)cc1C(F)(F)F (centres unmarked) = 99

Input line: Using the record for N#Cc1ccc(N2CCC(C(=O)Nc3ccc(OC4CN(CC5CCN(c6ccc7c(c6)C(=O)N(C6CCC(=O)NC6=O)C7=O)CC5)C4)cn3)CC2)cc1C(F)(F)F (centres unmarked) , report its inhibition at 1 µM.
Output line: 92

Input line: Subsequent entry: N#Cc1ccc(N2CCC(C(=O)Nc3ccc(N4CCN(CCCCOc5ccc6c(c5)C(=O)N(C5CCC(=O)NC5=O)C6=O)CC4)cn3)CC2)cc1Cl (centres unmarked)
Output line: 53
